Tested on: UACC-257 melanoma
ASSAY_INFO: NCI tumour cell line growth inhibition, 48 h
ASSAY_METRIC: GI50

MOLECULE	GI50
Cc1nc(C(=O)OCc2ccccc2)cc(OCc2ccccc2)c1C	18.8 µM
O=C1c2ccccc2-c2c1c1ccccc1c(=O)n2CCNCCNCCNCCNCCn1c2c(c3ccccc3c1=O)C(=O)c1ccccc1-2	0.716 µM
CC(C)(O)c1cc(Nc2cc(Oc3cn(C4CC4)nc3C3CCOCC3)ccn2)ccn1	85.1 µM
COc1c(OC2OC(C)C(O)C(O)C2O)c(OC)c2oc(-c3ccc(O)cc3)cc(=O)c2c1O (configuration not stated)	3.97 µM
N#C/C(=C/C=C/c1cccc(Cl)c1)S(=O)c1ccccc1 (configuration not stated)	1.64 µM

**Q:** Recorded GI50 for `CC(C)(C)OC(=O)NCCCCCCCCCCCCn1c2c(c3ccccc3c1=O)C(=O)c1ccccc1-2` , please?
**A:** > 100 µM

**Q:** Would you kindly share the measured GI50 for `CCN(CC)CC[n+]1ccc2c(C)c3[nH]c4ccccc4c3c(C)c2c1` ?
**A:** 0.633 µM

**Q:** Look up GI50 for this molecule: `N.N.N.N.O=S([O-])[O-].[Co+3].[N-]=[N+]=[N-]`
**A:** > 100 µM

**Q:** Data request, read-out GI50, for `COc1cc(C=NCC(=O)CSC(c2ccccc2)c2ccccc2)ccc1O`
**A:** 5.94 µM

**Q:** Using the record for `CCN(CC)c1ccc(/C=N/N=C(N)N)cc1` , report its GI50.
**A:** 5.2 µM

**Q:** // lookup GI50 for `COc1ccc2c(c1)[n+](=O)c(/C=C/C(=O)c1cc(OC)c(OC)c(OC)c1)c(C)n2[O-]`
**A:** 9.61 µM

**Q:** // lookup GI50 for `COc1ccc2c(CN3CCCC[C@H]3O)cc3cc4c(cc3c2c1)OCO4`
**A:** 0.237 µM

* * *

System: OVCAR-4 ovarian
ASSAY_INFO: NCI tumour cell line growth inhibition, 48 h
ASSAY_METRIC: TGI

As a guide, the following entries are already answered.
MOLECULE	STUDY_TARGET	ASSAY_METRIC	MEASUREMENT
CCOC(=O)C1=C(N2CCCC2)C(=O)C(C(=O)OCC)C1 (configuration not stated)	OVCAR-4 ovarian	TGI	> 100 µM
C[C@@H]([C@H]1CC[C@@]2(C)[C@@H]3CC[C@@H]4C(=CC3=CC[C@]12C)CC[C@H](N(C)C)C4(C)C)N(C)C	OVCAR-4 ovarian	TGI	> 100 µM
CCOC(=O)NN1C(=O)C(=P(c2ccccc2)(c2ccccc2)c2ccccc2)C(C(=O)OC)=C1C	OVCAR-4 ovarian	TGI	> 100 µM
CCNc1ccc2c(c1)C(=O)N(OS(C)(=O)=O)C2=O	OVCAR-4 ovarian	TGI	> 100 µM
O=C(NNC(=O)c1ccc(Cl)cc1NC(=O)C12CC3CC(CC(C3)C1)C2)c1ccc(Cl)cc1	OVCAR-4 ovarian	TGI	> 100 µM

**Q:** Which measured TGI value corresponds to `COc1ccc(C(=O)Cn2c(C(=O)c3ccc(Cl)cc3)nc(-c3ccccc3)c2-c2ccccc2)cc1` ?
**A:** > 100 µM

**Q:** Could you tell me which TGI is on file for `O=S1(=O)N=C(SCc2c[nH]c3ccccc23)N(c2ccccc2)c2ccncc21` ?
**A:** > 100 µM

**Q:** Reported TGI for N#C/C(=C/C=C/c1cccc(Cl)c1)S(=O)c1ccccc1 (configuration not stated) : what is it?
**A:** 1.16 µM

**Q:** Looking for the measured TGI of `NCCCNCCSP(=O)(O)O` , can you help?
**A:** > 750 µM

**Q:** Looking for the measured TGI of `CCOC(=O)c1cnc2n(c1=O)[C@H]1CCCC[C@@H]1N2` , can you help?
**A:** > 100 µM

**Q:** Can you share its TGI? I mean this molecule: COc1ccc(C2=NNC(c3sc(Cl)nc3Cl)C2)cc1 (configuration not stated)
**A:** 25.4 µM

**Q:** Can you share its TGI? I mean this molecule: CC(=O)OC1C2CCC3CC2C2(SCCS2)C31 (configuration not stated)
**A:** > 100 µM

**Q:** TGI lookup needed for `COc1ccc(CN2c3ccccc3Sc3ccccc32)cc1O` , thanks.
**A:** 19.3 µM

**Q:** Look at this molecule and give its reported TGI. `Cc1cc(C)c(-c2c(O)c(Br)c(-c3c(C)cc(C)c(Br)c3C)c(O)c2Br)c(C)c1Br`
**A:** 9.92 µM

**Q:** Field request: TGI | item: `CCOC(=O)/C=C(/C(=O)OCC)n1cc(C)c(=O)n(Cc2cn(CCCCOC(C)=O)nn2)c1=O`
**A:** 39.5 µM

**Q:** Find the recorded TGI belonging to `COc1ccc(N=c2nc3sc4cc(Cl)ccc4n3c(N)c2C#N)cc1` and report it.
**A:** > 100 µM

**Q:** Give its TGI value. Item: `CN(CCOc1ccc(NS(C)(=O)=O)cc1)CCc1ccc(NS(C)(=O)=O)cc1`
**A:** > 100 µM
